# Test system: T. b. brucei Lister 427
# Format: cell-based, Trypanosoma brucei brucei
# recorded conditions: first pass screen at 4 μM
readout: activity against T. b. brucei, in words

See these solved cases before continuing.
- smiles repr: "O=C(/C=C/c1ccc(C(F)(F)F)cc1)CC(=O)/C=C/c1ccc(C(F)(F)F)cc1"
  measured target: "T. b. brucei Lister 427"
  activity against T. b. brucei, in words: "inactive"
- smiles repr: "COc1cc(/C=C2\\CCC/C(=C\\c3cc(OC)cc(OC)c3)C2=O)cc(OC)c1"
  measured target: "T. b. brucei Lister 427"
  activity against T. b. brucei, in words: "inactive"
- smiles repr: "COc1ccc(/C=C/C(=O)/C=C/c2ccc(OC)c(OC)c2)cc1OC"
  measured target: "T. b. brucei Lister 427"
  activity against T. b. brucei, in words: "sub-micromolar activity"
- smiles repr: "COc1ccc(/C=C/C(=O)/C=C/c2ccc(OC)cc2)cc1"
  measured target: "T. b. brucei Lister 427"
  activity against T. b. brucei, in words: "inactive"
- smiles repr: "COc1cc(/C=C/C(=O)/C=C/c2cc(OC)c(OC)c(OC)c2)cc(OC)c1OC"
  measured target: "T. b. brucei Lister 427"
  activity against T. b. brucei, in words: "sub-micromolar activity"
- smiles repr: "O=C(/C=C/c1ccc(Cl)c(Cl)c1)CC(=O)/C=C/c1ccc(Cl)c(Cl)c1"
  measured target: "T. b. brucei Lister 427"
  activity against T. b. brucei, in words: "inactive"

[Q] Given "COc1cccc(/C=C/C(=O)CC(=O)/C=C/c2cccc(OC)c2)c1" , state its recorded activity against T. b. brucei, in words.
[A] inactive
